- ASSAY NOTES: Antioxidant activity assessed as t-BuOOH scavenging at 10 uM measured after 300 mins in presence of GSH and NADPH
- Assay type: functional
OBSERVABLE: Activity (%)
Write it as a number; the unit % goes unstated.

Answered cases to consult:
SMILES	Activity [%]
O=c1c2cccc(F)c2[se]n1-c1ccc2cccc(O)c2n1	31
O=c1c2c(Cl)cccc2[se]n1-c1ccc2cccc(O)c2n1	38
O=c1c2cc(O)ccc2[se]n1-c1ccc2cccc(O)c2n1	30
O=c1c2c(F)cccc2[se]n1-c1ccc2cccc(O)c2n1	46

// switching to the query compound
Qu. Field request: Activity | item: `O=c1c2c(C(F)(F)F)cccc2[se]n1-c1ccc2cccc(O)c2n1`
Ans. 67

---

- ASSAY NOTES: Permeability of the compound at 100 ug/ml measured after 10 hrs by PAMPA-BBB assay
- Format: ADME
- STUDY CONDITIONS: read-out: Peff
Catalogue of Papp at 10 h, 100 ug/ml readings, one per entry.
API: value field is a number in ×10⁻⁶ cm/s; no unit string.

Example entries begin here.
SMILES	MEASURED RESULT
O=c1c2cccc(C(F)(F)F)c2[se]n1-c1ccc2cccc(O)c2n1	13.3
O=c1c2c(Cl)cccc2[se]n1-c1ccc2cccc(O)c2n1	7.8
O=c1c2c(F)cccc2[se]n1-c1ccc2cccc(O)c2n1	7.4
O=c1c2cc(O)ccc2[se]n1-c1ccc2cccc(O)c2n1	5.9

Qu. Recorded Papp at 10 h, 100 ug/ml of `O=c1c2c(C(F)(F)F)cccc2[se]n1-c1ccc2cccc(O)c2n1` , please.
Ans. 10.1

Qu. Using the record for `O=c1c2cccc(F)c2[se]n1-c1ccc2cccc(O)c2n1` , report its Papp at 10 h, 100 ug/ml.
Ans. 11.1

---

- ASSAY NOTES: Antioxidant activity assessed as H2O2 scavenging at 10 uM measured after 200 to 220 mins in presence of GSH and NADPH
- Format: functional
OBSERVABLE: Activity (%)
Your answer should be a plain number; it is taken to be in %.

Example entries begin here.
SMILES	MEASURED RESULT
O=c1c2c(Cl)cccc2[se]n1-c1ccc2cccc(O)c2n1	65
O=c1c2cccc(F)c2[se]n1-c1ccc2cccc(O)c2n1	62
O=c1c2c(F)cccc2[se]n1-c1ccc2cccc(O)c2n1	71
O=c1c2cc(O)ccc2[se]n1-c1ccc2cccc(O)c2n1	60

Qu. Activity for `O=c1c2c(C(F)(F)F)cccc2[se]n1-c1ccc2cccc(O)c2n1` ?
Ans. 68
